B1: scFv; the commonest letter at each place (parent)
chain 1: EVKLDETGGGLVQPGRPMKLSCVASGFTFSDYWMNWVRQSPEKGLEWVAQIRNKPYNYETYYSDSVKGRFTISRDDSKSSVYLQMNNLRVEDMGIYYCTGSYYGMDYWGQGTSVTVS
chain 2: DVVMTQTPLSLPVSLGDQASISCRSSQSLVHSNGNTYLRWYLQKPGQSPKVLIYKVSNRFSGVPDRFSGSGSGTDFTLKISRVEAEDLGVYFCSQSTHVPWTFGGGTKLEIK

- Variants of: B1
- protocol summary: yeast surface expression (ratio to wild type); higher = more expressed
- measurement parameters: format: scFv 4-4-20, heavy + light
Lab note: anything with yeast surface expression at or over 0.8 counts as criterion met; the rest go in criterion not met.

Check the entry chain 1 G100S D106E : does yeast surface expression equal or exceed 0.8?
criterion met

Quick check: does chain 1 G100S M105R have yeast surface expression greater than or equal to 0.8?
criterion met

Does chain 1 G100R G109C have a reported yeast surface expression of at least 0.8?
criterion not met

Form field: yeast surface expression at least 0.8? Entry: chain 1 N35S V37E
criterion not met
